test system: SN12C renal; experiment: NCI-60 one-dose screen, 48 h (100 = growth as untreated, 0 = no growth, -100 = all killed); conditions: 10 µM unless noted
The panel holds about 83,000 compounds, 20% with a hit somewhere; the sample as a whole holds those more often.
growth values by entry
property_measured: growth (%)

[[record]]
compound = "O=c1cc(C2NCCc3c2[nH]c2ccccc32)c2c(ccc3ccccc32)o1 (stereo not drawn)"
test_value = 87.5

[[record]]
compound = "CCNC(=O)C1CCCN1C(=O)C(CCCN=C(N)N)NC(=O)C(CC(C)C)NC(=O)C(CC(C)C)NC(=O)C(Cc1ccc(O)cc1)NC(=O)C(CO)NC(=O)C(Cc1c[nH]c2ccccc12)NC(=O)C(Cc1cnc[nH]1)NC(=O)C1CCC(=O)N1 (stereo not drawn)"
test_value = 112

[[record]]
compound = "NC(=O)c1cccc(N2Cc3ccccc3OC3=C2C(=O)c2c(O)ccc(O)c2C3=O)c1"
test_value = -53.5

[[record]]
compound = "O=C1CCC(=O)N1Cc1ccccc1"
test_value = 104

[[record]]
compound = "COc1ccc(S(=O)(=O)N2CCN(c3cc4c(cc3F)c(=O)c(C(=O)O)cn4C3CC3)CC2)c(OC)c1"
test_value = 90.7

[[record]]
compound = "CC(C)(C)OC(=O)N1C/C(=C\\c2cccs2)C(=O)/C(=C/c2cccs2)C1"
test_value = 93.6

[[record]]
compound = "c1cc(-c2ccc3c(c2)OCO3)n2nccc2n1"
test_value = 108

[[record]]
compound = "COc1ccc(S(=O)(=O)Nc2cc(/C=C\\c3cc(OC)c(OC)c(OC)c3)cc(OC)c2OC)cc1OC"
test_value = 45

